- experimental target: T1, EsCas13d, nuclease-dead (Eubacterium siraeum, UniProt B0MS50, R295A;H300A;R849A;H854A)
- T1 sequence: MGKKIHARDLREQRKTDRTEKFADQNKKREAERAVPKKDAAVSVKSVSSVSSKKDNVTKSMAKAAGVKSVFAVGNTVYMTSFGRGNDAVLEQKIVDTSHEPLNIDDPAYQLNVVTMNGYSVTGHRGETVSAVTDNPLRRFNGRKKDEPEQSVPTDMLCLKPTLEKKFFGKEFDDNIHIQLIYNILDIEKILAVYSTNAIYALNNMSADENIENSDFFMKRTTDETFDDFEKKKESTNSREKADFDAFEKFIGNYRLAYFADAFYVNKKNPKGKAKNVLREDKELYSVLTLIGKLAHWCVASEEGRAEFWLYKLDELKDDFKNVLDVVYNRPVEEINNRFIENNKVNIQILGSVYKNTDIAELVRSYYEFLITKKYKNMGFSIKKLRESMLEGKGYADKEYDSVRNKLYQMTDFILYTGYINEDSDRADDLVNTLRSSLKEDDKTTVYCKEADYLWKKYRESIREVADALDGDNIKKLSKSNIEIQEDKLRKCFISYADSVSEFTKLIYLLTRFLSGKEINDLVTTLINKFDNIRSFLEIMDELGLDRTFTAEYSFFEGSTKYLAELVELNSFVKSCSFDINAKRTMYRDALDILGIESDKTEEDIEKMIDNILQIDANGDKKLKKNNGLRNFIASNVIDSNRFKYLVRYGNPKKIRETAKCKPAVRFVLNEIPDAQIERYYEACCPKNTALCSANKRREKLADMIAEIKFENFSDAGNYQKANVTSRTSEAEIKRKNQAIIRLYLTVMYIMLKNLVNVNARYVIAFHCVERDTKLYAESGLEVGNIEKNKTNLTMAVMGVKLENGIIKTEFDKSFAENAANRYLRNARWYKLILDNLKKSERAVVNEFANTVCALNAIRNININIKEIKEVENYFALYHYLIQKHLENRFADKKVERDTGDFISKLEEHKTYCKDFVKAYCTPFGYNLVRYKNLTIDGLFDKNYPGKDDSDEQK
- protocol text: crRNA (strand 1, pre-loaded); Mg2+; 40 mM Tris-HCl pH 7.5, 150 mM NaCl, 6 mM MgCl2, 1 mM DTT, 0.1% Tween-20, 0.2 mg/ml BSA; 25 C; 10 min per concentration, then washed
- condition parameters: tags: His6-TwinStrep-SUMO cleaved; N-terminal SNAP kept (SNAP-Surface 488); label: 3' end held by stalled T7 RNA polymerase
metric: Kd (nM)
Enter your answer as a number in nM; do not include the unit.

{"columns": ["binder", "Kd / nM"],
 "data": [
  ["target 1 C7A,G17U (mixed) RNA 1: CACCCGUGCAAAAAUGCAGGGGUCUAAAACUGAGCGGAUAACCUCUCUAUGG RNA 2: GGGAAUGGAUCCACAUCUACGAAUUCGUACCAUAUAGAGGUUAUACGCUCACCGAGAUCGGAAGAGCACACGU", 34],
  ["target 3 insA 3' of 8,insC 3' of 7 (mixed) RNA 1: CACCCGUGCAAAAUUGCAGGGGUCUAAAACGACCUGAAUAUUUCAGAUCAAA RNA 2: GGGAAUGGAUCCACAUCUACGAAUUCGUUUUUGAUCUGAAAUAUAUCCAGGUCUGCAGAUCGGAAGAGCACACGU", 67.5],
  ["target 1 insA 3' of 19,insU 3' of 2 (mixed) RNA 1: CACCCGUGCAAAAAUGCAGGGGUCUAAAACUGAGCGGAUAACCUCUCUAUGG RNA 2: GGGAAUGGAUCCACAUCUACGAAUUCGUACCAUAAGAGAGGUUAUCCGCUCUACCGAGAUCGGAAGAGCACACGU", 23],
  ["target 3 insU 3' of 16,insU 3' of 1 (mixed) RNA 1: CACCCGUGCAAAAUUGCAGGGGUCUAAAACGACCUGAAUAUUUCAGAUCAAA RNA 2: GGGAAUGGAUCCACAUCUACGAAUUCGUUUUUGAUCUUGAAAUAUUCAGGUCUUGCAGAUCGGAAGAGCACACGU", 39.5],
  ["target 1 U8A,G13U (mixed) RNA 1: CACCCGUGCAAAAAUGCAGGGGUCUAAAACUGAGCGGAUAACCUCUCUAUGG RNA 2: GGGAAUGGAUCCACAUCUACGAAUUCGUACCAUAGAGAUGUUAACCGCUCACCGAGAUCGGAAGAGCACACGU", 53],
  ["target 1 insG 3' of 16,insA 3' of 8 (mixed) RNA 1: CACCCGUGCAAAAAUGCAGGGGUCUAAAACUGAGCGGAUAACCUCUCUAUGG RNA 2: GGGAAUGGAUCCACAUCUACGAAUUCGUACCAUAGAGGAGGUUAUACCGCUCACCGAGAUCGGAAGAGCACACGU", 22.1]
]}

// switching to the query binder
-- ask Which value of Kd has been reported for target 1 insU 3' of 22,insA 3' of 19 (mixed) RNA 1: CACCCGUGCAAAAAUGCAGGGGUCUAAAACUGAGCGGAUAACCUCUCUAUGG RNA 2: GGGAAUGGAUCCACAUCUACGAAUUCGUACUCAUAAGAGAGGUUAUCCGCUCACCGAGAUCGGAAGAGCACACGU in the records?
-- reply 80

Data origin, for the record: paper PMC10786891
